assay-details: NCI Yeast Anticancer Drug Screen. Data for the cln2 rad14 strain (AID 165)
run-conditions: S. cerevisiae cln2 rad14 strain, at 50.0 µM, stronger effect = higher value
Experimental: Growth inhibition of yeast strains with defined genetic alterations is measured as a screen for potential anti-cancer activity. Selected strains with alterations in DNA damage repair or cell cycle control were exposed to compounds and growth inhibition was measured relative to vehicle treated controls. The strain used in this assay is cln2 rad14
The panel holds about 79,000 compounds, 15% with a hit somewhere; the sample as a whole holds those more often.
I'd appreciate it if you could label each record using growth inhibition and these ranges: bottom: < 40%; middle: ≥ 40% and < 80%; top: ≥ 80%

Here's what some known entries look like.
[[record]]
compound = "CC1CN(CCCN2c3ccccc3Sc3ccc(Cl)cc32)C(C)(C)C1 (stereo not drawn)"
assigned_class = "top"

[[record]]
compound = "S=c1[nH]c2c(-c3ccccc3)cccc2s1"
assigned_class = "middle"

[[record]]
compound = "O=C(CCCN1CCN2Cc3[nH]c4ccccc4c3CC2C1)c1ccc(F)cc1 (stereo not drawn)"
assigned_class = "top"

[[record]]
compound = "CCOC(=O)C(F)C(Br)C(=O)OCC (stereo not drawn)"
assigned_class = "top"


Challenge: Form field 'band' for CCCCCCCCCCCCCCCCCCOS(=O)(=O)O (tested in a mixture with another compound)
Response given: middle

Challenge: // query: Oc1c(Cl)cc(Cl)cc1Br
Response given: middle

Challenge: Again, but for CCC(C(=O)CCN(C)C)(c1ccccc1)c1ccccc1
Response given: top

Challenge: Also need Cc1ccc(S(=O)(=O)OC(C=O)C(O)C(O)COC(c2ccccc2)(c2ccccc2)c2ccccc2)cc1 (stereo not drawn) , thanks.
Response given: top

Challenge: Item: CCCCCCCCCCCCCCC(=O)OCC[N+](C)(C)C
Response given: top

Challenge: Do the same for O=[N+]([O-])c1ccc(/C(=C\c2ccccc2)Cn2ccnc2)cc1 please
Response given: middle

Challenge: # repeat for CCC(C)OC(=O)Nc1cccc(Cl)c1 (stereo not drawn)
Response given: bottom

Challenge: Try O=C(O)/C=C/C(=O)c1ccccc1 next.
Response given: bottom

Challenge: Item: Oc1ccc2cc(Br)ccc2c1
Response given: middle

Challenge: Now give it for Oc1ccc(Cc2ccccc2)cc1Cl too.
Response given: top

Challenge: Further, for Clc1cc2n[nH]nc2c(Cl)c1Cl ?
Response given: top

Challenge: Could you do the same for O=[N+]([O-])c1c(Br)ncn1Cc1ccccc1 , please?
Response given: bottom

Challenge: Try CCN(CC)CCNc1c(OC)cc(C)c2sc3ccccc3c(=O)c12 next.
Response given: bottom
